Where do the numbers come from? From the supplement of paper PMC5998384.

- Tested on: HeLa Kyoto;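 also: synchronized HeLa Kyoto cells, proteins quantified by TMT10plex mass spectrometry, three biological replicates, mitosis taken 0.5 h after nocodazole release, G1/S directly after double thymidine block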
- TEST: thermal stability score vs G1/S (z-score of summed log2 fold changes over temperatures); higher = more thermally stable than in G1/S
- TEST_CONDITIONS: cell cycle stage: early G1 (4.5 h after nocodazole release)
# thermal stability score values compiled below
Format: numeric value only, no unit, no commentary.

Name the reported thermal stability score value associated with the sequence MESPASSQPASMPQSKGKSKRKKDLRISCMSKPPAPNPTPPRNLDSRTFITIGDRNFEVEADDLVTISELGRGAYGVVEKVRHAQSGTIMAVKRIRATVNSQEQKRLLMDLDINMRTVDCFYTVTFYGALFREGDVWICMELMDTSLDKFYRKVLDKNMTIPEDILGEIAVSIVRALEHLHSKLSVIHRDVKPSNVLINKEGHVKMCDFGISGYLVDSVAKTMDAGCKPYMAPERINPELNQKGYNVKSDVWSLGITMIEMAILRFPYESWGTPFQQLKQVVEEPSPQLPADRFSPEFVDFTAQCLRKNPAERMSYLELMEHPFFTLHKTKKTDIAAFVKEILGEDS [MAP2K3]
1.81

Name the reported thermal stability score value associated with the sequence MGSQGSPVKSYDYLLKFLLVGDSDVGKGEILESLQDGAAESPYAYSNGIDYKTTTILLDGRRVKLELWDTSGQGRFCTIFRSYSRGAQGILLVYDITNRWSFDGIDRWIKEIDEHAPGVPRILVGNRLHLAFKRQVPTEQARAYAEKNCMTFFEVSPLCNFNVIESFTELSRIVLMRHGMEKIWRPNRVFSLQDLCCRAIVSCTPVHLIDKLPLPVTIKSHLKSFSMANGMNAVMMHGRSYSLASGAGGGGSKGNSLKRSKSIRPPQSPPQNCSRSNCKIS [RAB40C]
-0.589
